- assay.system: Aromatase (Homo sapiens) (UniProt P11511)
- Sequence (P11511 whole entry, looked up): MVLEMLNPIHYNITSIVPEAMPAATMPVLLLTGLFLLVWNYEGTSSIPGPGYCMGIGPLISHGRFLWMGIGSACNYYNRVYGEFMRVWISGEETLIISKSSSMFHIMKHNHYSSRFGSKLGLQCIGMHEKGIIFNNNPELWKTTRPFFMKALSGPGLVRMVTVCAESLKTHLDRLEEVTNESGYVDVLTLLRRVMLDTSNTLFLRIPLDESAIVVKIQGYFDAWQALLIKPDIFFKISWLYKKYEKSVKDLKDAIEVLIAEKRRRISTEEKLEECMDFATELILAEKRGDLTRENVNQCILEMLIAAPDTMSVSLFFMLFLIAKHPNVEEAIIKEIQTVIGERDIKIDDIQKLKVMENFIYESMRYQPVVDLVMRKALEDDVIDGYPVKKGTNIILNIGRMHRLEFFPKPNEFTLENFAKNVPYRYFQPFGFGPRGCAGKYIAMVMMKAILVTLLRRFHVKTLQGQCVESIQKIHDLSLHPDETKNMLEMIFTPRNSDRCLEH
- test.method.notes: qHTS assay to identify aromatase inhibitors (AID 743083); also: nearly all actives have a fitted effect of over 55% in size
- measurement.parameters: MCF-7 aro ERE, testosterone-driven ERE luciferase, 24 h; series mostly up to 70.3 µM
Inconclusive results are not listed. Activity calls are given as the source filed them. Calls follow the shape of the dose curve; as a rule, active = well fitted inhibition curve with a large enough effect in the repeat runs; inconclusive = weak or mixed curves; inactive = no such curve, though single readings can be large or run the other way.
Return exactly one item of true (active), false (inactive)

Consider the following illustrative entries.
{"columns": ["compound", "class"],
 "data": [
  ["COc1ccc2c3c1O[C@H]1[C@H](O)CC[C@H]4[C@@H](C2)N(C)CC[C@@]341", "false"],
  ["CC(=O)O.CC(=O)O.CC(=O)O.CC(=O)O.CC(=O)O.CC(=O)O.CC(=O)O.O.O.[Cr].[Cr].[Cr]", "false"],
  ["S=C=NCCc1ccccc1", "false"]
]}

Query compound follows.
q: // param item: O.O.O.O.O.O.O.O=S(=O)([O-])[O-].[Co+2] ; yields the recorded call
a: false

====

- test.method.notes: qHTS assay to identify small molecule antagonists of the sonic hedgehog signaling (Shh) pathway - cell viability counter screen (AID 1259367); also: nearly all actives have a fitted effect of over 55% in size
- measurement.parameters: NIH/3T3 Gli1-Luc viability, CellTiter-Fluor, 24 h; series mostly up to 92.4 µM
Inconclusive results are not listed. Calls of active or inactive are those of the source. Calls come from the whole dose curve; as a rule, active = well fitted cell-killing curve with a large enough effect in the repeat runs; inconclusive = weak or mixed curves, or effect the other way; inactive = no such curve, though single readings can be large or run the other way.
quantity.kind: outcome

Worked examples follow.
{"columns": ["compound", "result"],
 "data": [
  ["CCOP(=S)(OCC)Oc1cc(C)nc(N(CC)CC)n1", "inactive"],
  ["ClC1(Cl)C2(Cl)C3(Cl)C4(Cl)C(Cl)(Cl)C5(Cl)C3(Cl)C1(Cl)C5(Cl)C24Cl (centres undefined)", "inactive"],
  ["CN1C2CCC(C)(C)C1CC(OC(=O)C(O)(c1cccs1)c1cccs1)C2 (centres undefined)", "inactive"],
  ["CC(C)N(C(=O)SC/C(Cl)=C/Cl)C(C)C", "inactive"],
  ["O=C(O)CCCCCCNC1c2ccccc2CCc2ccccc21", "inactive"],
  ["CCNc1nc(NC(C)C(C)C)nc(SC)n1 (centres undefined)", "inactive"]
]}

# outcome (compound: Cc1cnc2c(C(=O)O)c(Cl)ccc2c1 ) is inactive

# outcome (compound: CC[C@]1(O)CC[C@H]2[C@@H]3CCC4=CCCC[C@@H]4[C@H]3CC[C@@]21C ) is inactive

# outcome (compound: CC1(C)C(C=C(Cl)Cl)C1C(=O)OC(C#N)c1ccc(F)c(Oc2ccccc2)c1 (centres undefined) ) is inactive

====

- test.method.notes: A CellTox Green Cytotoxicity Assay to monitor cytotoxicity in HEK293 cells - 16 hour (AID 1224888); also: nearly all actives have a fitted effect of over 35% in size
- measurement.parameters: CellTox Green fluorescence; series mostly up to 76.8 µM
Inconclusive results are not listed. Active and inactive are the calls of the source. Calls come from the whole dose curve; as a rule, active = well fitted activation curve with a large enough effect in the repeat runs; inconclusive = weak or mixed curves; inactive = flat fitted curve, though single readings scatter.
Return exactly one item of class 1 (active), class 0 (inactive)

Consider the following illustrative entries.
{"columns": ["compound", "class"],
 "data": [
  ["COc1ccc2c3c1O[C@H]1[C@H](O)CC[C@H]4[C@@H](C2)N(C)CC[C@@]341", "class 0"],
  ["c1ccc2nc(N3CCNCC3)ccc2c1", "class 0"],
  ["CC(=O)[O-].CC(=O)[O-].O.O.O.[Pb+2]", "class 0"]
]}

Query compound follows.
q: // param item: Brc1ccc(Oc2ccc(Br)cc2Br)c(Br)c1 ; yields the recorded call
a: class 0

====

- test.method.notes: qHTS assay to identify small molecule antagonists of the androgen receptor (AR) signaling pathway - cell viability counter screen (AID 743033; also: nearly all actives have a fitted effect of over 45% in size)
- measurement.parameters: AR-bla HEK293 viability, CellTiter-Glo luminescence, 16 h; series mostly up to 58.5 µM
- Text: National Center for Advancing Translational Sciences [NCATS] NIH Chemical Genomics Center [NCGC] U.S. Environmental Protection Agency [EPA] National Institutes of Environmental Health Sciences [NIEHS] National Toxicology Program [NTP] U.S. Food and Drug Administration [FDA] Androgen receptor (AR), a nuclear hormone receptor, plays a critical role in AR-dependent prostate cancer and other androgen related diseases. […]
Results filed as inconclusive are left out. Calls of active or inactive are those of the source. The call rests on the fitted dose curve; in most records, active means well fitted cell-killing curve with a large enough effect in the repeat runs; inconclusive means weak or mixed curves; inactive means no such curve, though single readings can be large or run the other way.
Return exactly one item of yes (1) for active, no (0) for inactive

{"columns": ["molecule", "class"],
 "data": [
  ["CCCCC(CC)COC(=O)OOC(C)(C)C (stereo not drawn)", "no (0)"],
  ["COc1ccc2[nH]cc(CCN(C(C)C)C(C)C)c2c1", "no (0)"],
  ["O=S1OCC2C(CO1)C1(Cl)C(Cl)=C(Cl)C2(Cl)C1(Cl)Cl (stereo not drawn)", "yes (1)"],
  ["C=CC(=C)C", "no (0)"]
]}

q: // param item: CCCCON=O ; yields the recorded call
a: no (0)

q: // param item: CNC(=O)Oc1cc(C)cc(C(C)C)c1 ; yields the recorded call
a: no (0)

q: // param item: O.O.O.O.O.O.O=S(=O)([O-])[O-].[Ni+2] ; yields the recorded call
a: no (0)

q: // param item: CC[C@]1(O)CC[C@H]2[C@@H]3CCC4=CCCC[C@@H]4[C@H]3CC[C@@]21C ; yields the recorded call
a: no (0)

q: // param item: ClSC(Cl)(Cl)Cl ; yields the recorded call
a: no (0)

q: // param item: CC1=C2C[C@H]3[C@@H](CC=C4C[C@@H](O)CC[C@@]43C)[C@@H]2CC[C@]12O[C@@H]1C[C@H](C)CN[C@H]1[C@H]2C ; yields the recorded call
a: no (0)

q: // param item: Clc1cc(Cl)c(-c2cc(Cl)c(Cl)cc2Cl)cc1Cl ; yields the recorded call
a: no (0)

====

- assay.system: Thyrotropin receptor (Homo sapiens)
- test.method.notes: qHTS assay to identify small molecule agonists of the thyroid stimulating hormone receptor (TSHR) signaling pathway (AID 1224843); also: nearly all actives have a fitted effect of over 45% in size
- measurement.parameters: TSHR-HEK293 cells, cAMP HTRF, agonist mode, 30 min; series mostly up to 92.4 µM
Records with an inconclusive call do not appear. Activity calls are given as the source filed them. Calls come from the whole dose curve.
Return exactly one item of active, inactive

Consider the following illustrative entries.
{"columns": ["compound", "assay.system", "class"],
 "data": [
  ["O=[N+]([O-])c1ccccc1-c1ccccc1", "Thyrotropin receptor (Homo sapiens)", "inactive"],
  ["CCC1COC(Cn2cncn2)(c2ccc(Cl)cc2Cl)O1 (stereo not drawn)", "Thyrotropin receptor (Homo sapiens)", "inactive"],
  ["O=[N+]([O-])c1ccc(CCl)cc1", "Thyrotropin receptor (Homo sapiens)", "inactive"],
  ["Cc1cccc(Cc2cnc[nH]2)c1C", "Thyrotropin receptor (Homo sapiens)", "inactive"],
  ["Oc1cc(Cl)c(Cl)c(Cl)c1Cl", "Thyrotropin receptor (Homo sapiens)", "inactive"],
  ["CCN(CC)CCN1C(=O)CN=C(c2ccccc2F)c2cc(Cl)ccc21", "Thyrotropin receptor (Homo sapiens)", "inactive"],
  ["Cc1cc2c3c(c1)C(c1ccccc1)=N[C@@H](NC(=O)c1ccncc1)C(=O)N3CC2", "Thyrotropin receptor (Homo sapiens)", "inactive"],
  ["Nc1ccc(N=Nc2ccccc2)cc1", "Thyrotropin receptor (Homo sapiens)", "inactive"],
  ["COc1ccc2c(c1OC)C(=O)O[C@@H]2[C@H]1c2cc3c(cc2CCN1C)OCO3", "Thyrotropin receptor (Homo sapiens)", "inactive"],
  ["CCN(CC)C(=O)N[C@@H]1C=C2c3cccc4[nH]cc(c34)C[C@@H]2N(C)C1", "Thyrotropin receptor (Homo sapiens)", "inactive"]
]}

q: // param item: Nc1cc(Cl)ccc1Cl ; yields the recorded call
a: inactive

q: // param item: CCOP(=O)(OCC)Oc1nc(Cl)c(Cl)cc1Cl ; yields the recorded call
a: inactive

q: // param item: C=Cc1cccc(CCl)c1 ; yields the recorded call
a: inactive

q: // param item: CN1C(=O)[C@@H](NC(=O)c2cc3ccccc3[nH]2)N=C(c2ccccc2)c2ccccc21 ; yields the recorded call
a: inactive

q: // param item: C=CC(=C)C ; yields the recorded call
a: inactive

q: // param item: CCC[CH2][Sn]([CH2]CCC)([O]C(C)=O)[O]C(C)=O ; yields the recorded call
a: inactive

q: // param item: CCOP(=O)(OCC)Oc1cc(C)nc(C(C)C)n1 ; yields the recorded call
a: inactive

q: // param item: Cc1ccccc1OP(=O)(Oc1ccccc1C)Oc1ccccc1C ; yields the recorded call
a: inactive

q: // param item: [O]=[Cr](=[O])([OH])[O][Cr](=[O])(=[O])[OH] ; yields the recorded call
a: inactive

q: // param item: CC1=C2C[C@H]3[C@@H](CC=C4C[C@@H](O)CC[C@@]43C)[C@@H]2CC[C@]12O[C@@H]1C[C@H](C)CN[C@H]1[C@H]2C ; yields the recorded call
a: inactive

q: // param item: O=C(Nc1ccc(F)cc1F)c1cccnc1Oc1cccc(C(F)(F)F)c1 ; yields the recorded call
a: active

q: // param item: CC(C)N(C(=O)CCl)c1ccccc1 ; yields the recorded call
a: inactive

q: // param item: O=c1[nH]c(Cl)c(Cl)cc1Cl ; yields the recorded call
a: inactive

q: // param item: CCc1cccc(C)c1N(C(=O)CCl)[C@@H](C)COC ; yields the recorded call
a: active

q: // param item: COCCC#N ; yields the recorded call
a: inactive

// data source = PubChem BioAssay (Tox21)
